Experiment: yeast display, Sf9 membrane polyspecificity reagent, FACS + sequencing; frameworks hold sequencing errors
recordedMetric: polyreactivity (PSR sort gate)

These recorded examples may help you get a feel for the data.
QVQLVESGGGLVQAGGSLRLSCAASGIILFRYAMGWYRQAPGKERELVAAISWSGGSTYYADSVKGRFTISRDNAMNTVYLQMNCLKPEDTAVYYCAADHKYYGFGEVDYWGQGNQVTVSS
high polyreactivity
QVQLVESGGGLVQAGGSLRLSCAASGRTLVTNAMGWYRQAPGKERELVAAIDSDDGTTYYADSVKGRFTISRDNAKKTVYLQMNSLKPEDTAVYYCAAESYWRDDYWGQGTQVTVSS
low polyreactivity
QVQLVESGGGLVQAGGSLRLSCAASGYTFASYDMGWYRQAPGKERELVAAIDWSGGSTYYADSVKGRFTISRDNAKNTVYLQMNSLKPEDTAVYYCAAERPWTYGSDGMDYWGQGTQVTVSS
low polyreactivity
QVQLVESGGGLVQAGGSLRLSCAASGLIFDTNAMGWYRQAPGKERELVAAISLDGGSTYYADSVKGRFTISRDNAKNTVYLQMNSLKPEDTAVYYCNADYYANSITYDSWGQGTQVTVSS
low polyreactivity

Which value of polyreactivity (PSR sort gate) has been reported for QVQLVESGGGLVQAGGILRLSCAPSGSTFRANAMGWYRQAPGKERELVAAITSGGSTNYADSVKGRFTISRDNAKNTVYLQRNSLKPEDTAVYYCADESYQEHSFYVYYGYDYWGQGTQVTVSS in the records?
low polyreactivity

Another: QVQLVESGGGLVQAGGSLRLSCAASGRISSYYAMGWYRQAPGKEREFVAAITRSSGSTYYADSVKGRFTISRDNAKNTVYLQMNSLKPEDTAVYYCAADYYWTTFSRFDYWGQGTQVTVSS
low polyreactivity

// same read-out, input: QVQLVESGGDLVQAGGSLRLSCAASGSIFCYYVMGWYRQAPGKERELVAAITVSGAGTYNADSVKGRFTISRDNAKNTVYLQMNSLKPEDTAVYYCAARWLGHFYPFFLQGLSGFDYWGQGTQVTVSS
low polyreactivity

QVQLVESGGGLVQAGGSLRLSCAASGFIFRGYAMGWYRQAPGKERELVAAISRRGGSTYYADSVKGRFTISRDNAKNTVYLQMNSLKPEDTAVYYCNADTTPQGNVRDGYWGQGTQVTVSS , same question.
high polyreactivity

Now the same for QVQLVESGGGLVQAGGSLRLSCAASGITFVNNSRGCYRQAPVKEREFVAAISQGGGSTYYADSVKGRFTISRDNAKYTVYLQMNSLKPEDTAVYYCAAEIPRWWRFGYWGQGTQVTVSS
low polyreactivity

Next sequence: QVQLVESGGGLVQAGGSLRLSCAASGSIYHYYAMGWYRQAPGKERELVAAISWSGGRTNYADSVKGRFTISRDNAKNTVYLQMNSLKPEDTAVYYCAARARYPNWTYYYWGQGTQVTVSS
high polyreactivity

Also check QVQLVESGGGLDQAGGSLRLSCAASGLTFATYAMGWYRQAPGKERELVAAINGRGASTNYADSVKGRFTISRDNAKNTVYLKMNSLKPEDTAVYYCASRLYRRNKYVLFDYWGQGTQVTVSS
high polyreactivity

Thanks! And QVQLVESGGGLVQAGGSLRLSCAASGRTFWNYAMGCYRQAPGKERELVAAISSSGGTTYYADSVKGRFTISRDNAKNTVYLQMNTLKPEDTAVYYCAATGVSKPQRSFGYWGQGTQVTVSS ?
low polyreactivity

Follow-up entry: QVQLVESGRGLVQEGGSLRLSCAASGSTFEPYAMGWYRQAPGKERELVAAITLTAGSTYYADSVKGRFTISRDNAKNTVYLQRNSLKPEDTAVYYCAAEFWLVEDDYWGQGTQVTVSS
low polyreactivity

Param item: QVQLVESGGGLVQAGGSLRLSCAASGNIFDHYAMGWYRQAPGKERELVASITDSGDSTSYADSVKGRFTISRDNAKNTVYLQMNSLKPEDTAVYYCAADPYSVYGGDYWGQGTQVTVSS
low polyreactivity

Also, QVQLVESCGGLVQAGGSLRLSCAASGRIFSDYAMGWYRQAPGKERELVATITSGDSTNYADSVKGRFTISRDNAKNTVYLQMNSLKPEDTAVYYCNADRFADYDYWGQGTQVTVSS please.
low polyreactivity

Entry to check: QVQHVESGGGLVQAGGSLRLSCAASGFTFYSYAMGWYRQAPGKERELVASITSGGSTYYADSVKGRFTISRDNAKNTVYLQMNSLKPEDTAVYYCAAPAVKPRRSYYYWGQGTQVTVSS
high polyreactivity

These measurements were taken from the nanobody polyreactivity screen of Harvey et al. (2022).
